Test system: FM-MEL-6
Assay: drug sensitivity score (DSS) (DSS (unitless, 0-50 scale)); higher = more sensitive (stronger viability inhibition); extreme values may be limits of the assay
Conditions: 72 h; culture: 2D
Would you mind labelling by drug sensitivity score? At or over 0.5 is Y, under is N.

Example results:
CCc1cc2c(cc1N1CCC(N3CCOCC3)CC1)C(C)(C)c1[nH]c3cc(C#N)ccc3c1C2=O = N
CCc1nc(C(N)=O)c(Nc2ccc(N3CCC(N4CCN(C)CC4)CC3)c(OC)c2)nc1NC1CCOCC1 = Y
CN(c1ncccc1CNc1nc(Nc2ccc3c(c2)CC(=O)N3)ncc1C(F)(F)F)S(C)(=O)=O = Y
Cc1sc2c(c1C)C(c1ccc(Cl)cc1)=N[C@@H](CC(=O)Nc1ccc(OCCOCCOCCOCCNc3cccc4c3C(=O)N(C3CCC(=O)NC3=O)C4=O)cc1)c1nnc(C)n1-2 (some centres not stated) = Y
Cn1cc(C2=C(c3cn(C4CCN(Cc5ccccn5)CC4)c4ccccc34)C(=O)NC2=O)c2ccccc21 = N

Next, consider the following compound.
I'd appreciate it if you could say whether Cn1cnc2c(F)c(Nc3ccc(Br)cc3Cl)c(C(=O)NOCCO)cc21 has drug sensitivity score at least equal to 0.5.
Y

###

Listing of entries alongside the reported drug sensitivity score.
Tested on: Bowes
Assay: drug sensitivity score (DSS) (DSS (unitless, 0-50 scale)); higher = more sensitive (stronger viability inhibition); extreme values may be limits of the assay
Details: 72 h; culture: 2D

Some compounds with recorded drug sensitivity score:
NC1(c2ccc(-c3nc4ccn5c(=O)[nH]nc5c4cc3-c3ccccc3)cc2)CCC1 = 0
COc1cc2c(cc1OCCCN1CCCC1)N=C(N)C21CCC1 = 3.8

Entry COCCOc1cnc2ccn([C@H](C)c3nnc4c(F)cc(-c5cnn(C)c5)cn34)c(=O)c2c1 has what drug sensitivity score?
0

How about this compound: Cc1noc2c1-c1ccccc1C(c1ccc(Cl)cc1)=N[C@H]2CC(N)=O
3.8

Next compound: CS(=O)(=O)N1CCN(Cc2cc3nc(-c4cccc5[nH]ncc45)nc(N4CCOCC4)c3s2)CC1
8.4

Now the same for C[C@]1(c2nc3c(C(N)=O)cccc3[nH]2)CCCN1
0

CN(C)C(=N)NC(=N)N ?
0

Repeat with O=C(CCCCCCC(=O)Nc1ccc([C@H]2O[C@@H](CSc3nc(-c4ccccc4)c(-c4ccccc4)o3)C[C@@H](c3ccc(CO)cc3)O2)cc1)NO
4.9

###

Tested on: Bowes
Assay: drug sensitivity score (DSS) (DSS (unitless, 0-50 scale)); higher = more sensitive (stronger viability inhibition); extreme values may be limits of the assay
Conditions: 72 h; culture: 2D
Lab note: compare drug sensitivity score against 5. Equal or greater, write Condition met. Smaller, write Condition not met.

Solved entries (count: 6):
COc1cccc2c1c(O)c(C(=O)N(C)c1ccc(C(F)(F)F)cc1)c(=O)n2C [Tasquinimod] = Condition not met
COc1cccc(OCCCN)c1-c1cc(Nc2cnc(C#N)cn2)n[nH]1 [Prexasertib] = Condition met
CN1CC[C@H](c2c(O)cc(O)c3c(=O)cc(-c4ccccc4Cl)oc23)[C@H](O)C1 [Alvocidib] = Condition met
CCCCCCCCCCCCCCCCCCOP(=O)([O-])OC1CC[N+](C)(C)CC1 [Perifosine] = Condition not met
CCN(CC)CCN(Cc1ccc(-c2ccc(C(F)(F)F)cc2)cc1)C(=O)Cn1c(SCc2ccc(F)cc2)nc(=O)c2c1CCC2 [Darapladib] = Condition not met
COc1ccc(-c2ccc3ncc4c(c3c2)n(-c2ccc(N3CCNCC3)c(C(F)(F)F)c2)c(=O)n4C)cn1 [NVP-BGT226] = Condition met

Does the compound O=C(NC[C@H](O)CN1CCc2ccccc2C1)c1cc(NC2COC2)ncn1 have recorded drug sensitivity score that is 5 or more?
Condition not met

Try the compound CCCCCOC(=O)Nc1nc(=O)n([C@@H]2O[C@H](C)[C@@H](O)[C@H]2O)cc1F [Capecitabine]
Condition not met
